The entries that follow carry pIC50 values tested on UniProt:P00918, drawn from several published reports.
For clarity, pIC50 is expressed as the negative log10 of concentration in mol/L.

>>> measurement("CCCCCCCCn1c2ccccc2c2cc(/N=C/c3cccc(O)c3O)ccc21")
4.66
>>> measurement("COc1ccc(-c2cc(-c3ccc(N)cc3)nn2C(N)=S)cc1OC")
7.69
>>> measurement("CC(C)(O)c1coc(S(=O)(=O)NC(=O)Nc2c3c(cc4c2CCC4)CCC3)c1")
4.96

Attention now shifts to the item below.
The recorded pIC50 with UniProt:P00918 for NS(=O)(=O)c1ccc(CCNC(=O)c2ccc3c(c2)C(=O)c2ccccc2C3=O)cc1 was 7.67
